- EXPERIMENTAL TARGET: HIV protease (Human immunodeficiency virus type 1 group M subtype B, UniProt P03366)
- Construct: the protease expressed in Eschericia coli; made in house; host or cells: Escherichia coli
- EXPERIMENT SUMMARY: Assay for inhibition of microbial expressed HIV protease (in vitro, peptide substrate cleavage, HPLC)
- Format: biochemical
- CONDITIONS USED: IC50 of Compound J / IC50 of test compound x 100; dilution based on nominal weight
MEASURE: % Potency Relative to Compound J, Based On Nominal Wt. (%)

CHEM SMILES: CC(C)(C)NC(=O)[C@@H]1CN(Cc2ccc[n+]([O-])c2)CCN1C[C@@H](O)C[C@@H](Cc1ccccc1)C(=O)N[C@H]1c2ccccc2C[C@H]1O
TEST RESULT: 34
--
CHEM SMILES: CC(C)(C)NC(=O)[C@@H]1CN(Cc2cccnc2)CCN1C[C@@H](O)C[C@@H](Cc1ccccc1)C(=O)N[C@H]1c2ccccc2[C@H](O)[C@H]1O
TEST RESULT: 27
--
CHEM SMILES: CC(C)(C)NC(=O)[C@@H]1CN(Cc2cccnc2)CCN1C[C@@H](O)C[C@@H](Cc1ccccc1)C(=O)N[C@H]1c2ccccc2C(=O)[C@H]1O
TEST RESULT: 16
--
CHEM SMILES: CC(C)(C)NC(=O)[C@@H]1CN(Cc2cccnc2)CCN1C[C@@H](O)C[C@@H](Cc1ccc(O)cc1)C(=O)N[C@H]1c2ccccc2C[C@H]1O
TEST RESULT: 3.1
